# Tested on: Escherichia coli ATCC 25922
# testName: Minimal Inhibitory Concentration (MIC) determination, broth microdilution
# Assay type: cell-based
# conditionDetails: ATCC25922; strain Escherichia coli ATCC 25922; broth microdilution per CLSI M07-A10; 18-24 hours at 35±2° C.; lowest concentration for complete growth inhibition
metric: MIC (µg/mL)

- compound: "Cc1nc(NC(=O)[C@@H](C)N(C)C)cc2c1CC(CNCCC1CN(c3cnc4c(n3)NC(=O)CO4)C(=O)O1)C2 (stereo partly shown)"
  unitsText: "µg/mL"
  MIC: 0.5

(I) O=C(CN1CCOCC1)Nc1cc(F)c2c(c1)CC(CNCCC1CN(c3cnc4c(n3)NC(=O)CO4)C(=O)O1)C2 (stereo not shown)
(II) O=C(CN1CCC1)Nc1cc(F)c2c(c1)CC(CNCCC1CN(c3cnc4c(n3)NC(=O)CO4)C(=O)O1)C2 (stereo not shown)
Returns: the argument ( I or II ) having the larger MIC. Give the label under which the chosen entry appears.
I

(a) CN(C)C1(C(=O)Nc2cc(F)c3c(c2)CC(CNCCC2CN(c4cnc5c(n4)NC(=O)CO5)C(=O)O2)C3)CC1 (stereo not shown)
(b) CN1CCC[C@@H]1C(=O)Nc1cc(F)c2c(c1)CC(CNCCC1CN(c3cnc4c(n3)NC(=O)CO4)C(=O)O1)C2 (stereo partly shown)
Returns: the argument ( a or b ) having the larger MIC. Give the label under which the chosen entry appears.
a
(a: 1 µg/mL, b: 0.125 µg/mL)

(A) CC(C)(O)C(=O)Nc1cc(F)c2c(c1)CC(CNCCC1CN(c3cnc4c(n3)NC(=O)CO4)C(=O)O1)C2 (stereo not shown)
(B) Cc1cc(NC(=O)[C@@H]2CCCN2C)nc2c1CC(CNCCC1CN(c3cnc4c(n3)NC(=O)CO4)C(=O)O1)C2 (stereo partly shown)
(C) N#Cc1cc(NC(=O)[C@@H]2C[C@@H](O)CN2)cc2c1CC(CNCCC1CN(c3cnc4c(n3)NC(=O)CO4)C(=O)O1)C2 (stereo partly shown)
Arrange by MIC, high to low. Provide the labels, sequenced as the question asks.
B, C, A

* * *

# System: Escherichia coli ATCC 25922
# testName: Minimal Inhibitory Concentration (MIC) determination, broth microdilution
# Type: cell-based
# conditionDetails: ATCC25922; strain Escherichia coli ATCC 25922; broth microdilution per CLSI M07-A10; 18-24 hours at 35±2° C.; lowest concentration for complete growth inhibition
metric: MIC (µg/mL)

- molecule: "Cc1cc(NC(=O)CN2CCC2)nc2c1CC(CNCCC1CN(c3cnc4c(n3)NC(=O)CO4)C(=O)O1)C2 (stereo not drawn) [Example 26]"
  obsValue: 0.5
- molecule: "C[C@H](C(=O)Nc1cc(F)c2c(c1)C(F)C(CNCC[C@@H]1CN(c3cnc4c(n3)NC(=O)CO4)C(=O)O1)C2)N(C)C (stereo partly drawn) [Example 67]"
  obsValue: 0.5

* * *

# System: Escherichia coli ATCC 25922
# testName: Minimal Inhibitory Concentration (MIC) determination, broth microdilution
# Type: cell-based
# conditionDetails: ATCC25922; strain Escherichia coli ATCC 25922; broth microdilution per CLSI M07-A10; 18-24 hours at 35±2° C.; lowest concentration for complete growth inhibition
metric: MIC (mg/L)

- molecule: "CN(CCC1CN(c2cnc3c(n2)NC(=O)CO3)C(=O)O1)CC1Cc2cc(NC(=O)[C@@H]3C[C@@H](O)CN3)cc(F)c2C1 (some centres unmarked) [Example 63]"
  obsValue: 0.25

(A) C[C@H](C(=O)Nc1cc(F)c2c(c1)CC(CN(C)CCC1CN(c3cnc4c(n3)NC(=O)CO4)C(=O)O1)C2)N(C)C (some centres unmarked) [Example 58]
(B) Cc1cc(NC(=O)CN(C)C)nc2c1CC(CNCCC1CN(c3cnc4c(n3)NC(=O)CO4)C(=O)O1)C2 (centres unmarked) [Example 24]
Returns: the argument ( A or B ) having the larger MIC. Give the label under which the chosen entry appears.
B
(B: 0.5 mg/L, A: 0.25 mg/L)
